# Procedure Summary: Solubility of the compound in pH 7.4 PBS
# Format: physicochemical
Assay Readout: solubility (µg/mL)
# value in µg/mL; strip the unit string

Query :: Name the reported solubility value associated with the compound CC[C@@]1(OC(=O)CCC(=O)NCCCC[C@H](N)C(N)=O)C(=O)OCc2c1cc1n(c2=O)Cc2cc3ccccc3nc2-1
Result :: 5140

###

# Tested on: NCI-H460
# Procedure Summary: Cytotoxicity against human NCI-H460 cells assessed as cell viability after 96 hrs by MTT assay
# Assay type: functional, cell-based
# Condition Parameters: NCI-H460, 96 h
Quick reference for IC50 among some compounds
# value in nM; strip the unit string

| Compound | Measure Unit | Meas Value |
| --- | --- | --- |
| CC[C@@]1(O)C(=O)OCc2c1cc1n(c2=O)Cc2cc3ccccc3nc2-1 [CAMPTOTHECIN] | nM | 190 |

With those in mind, consider the next compound.
Query :: Name the reported IC50 value associated with the compound CC[C@@]1(OC(=O)CCC(=O)NCCCC[C@H](N)C(N)=O)C(=O)OCc2c1cc1n(c2=O)Cc2cc3ccccc3nc2-1
Result :: 430
